EXPERIMENTAL TARGET: T1, hFcRn on hFcRn-expressing HEK293 cells (human, UniProt P55899 24-365; P61769 21-119)
T1 construct: whole, on cells; also called hFcRn HEK293
T1 sequence (P55899 24-365 limits assumed, chain 1 of 2): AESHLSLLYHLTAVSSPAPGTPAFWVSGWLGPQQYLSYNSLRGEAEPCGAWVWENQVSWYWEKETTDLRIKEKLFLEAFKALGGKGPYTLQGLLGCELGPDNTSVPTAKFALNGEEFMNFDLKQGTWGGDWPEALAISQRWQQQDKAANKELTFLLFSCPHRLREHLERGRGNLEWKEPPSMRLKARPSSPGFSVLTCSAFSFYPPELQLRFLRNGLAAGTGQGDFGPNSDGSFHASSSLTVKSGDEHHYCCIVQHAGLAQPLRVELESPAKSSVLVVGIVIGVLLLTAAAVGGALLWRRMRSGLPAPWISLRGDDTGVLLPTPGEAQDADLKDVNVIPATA
T1 sequence (P61769 21-119 limits assumed, chain 2 of 2): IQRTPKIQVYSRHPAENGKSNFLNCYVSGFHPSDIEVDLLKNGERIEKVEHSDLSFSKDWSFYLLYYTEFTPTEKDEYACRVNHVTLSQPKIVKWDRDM
PROCEDURE TEXT: FACS on hFcRn HEK293 cells, 10 nM antibody, pH 7.4
I'd be grateful if you could share measured MFI for these entries.
Numbers only, in MFI.

// solved cases for MFI follow
BINDER	UNIT DESCRIPTOR	MFI
HL161AN variant No. 3 (LC:N25S, HC:Q82S) (antibody, human IgG1, V domains shown, Variable domains only) VL: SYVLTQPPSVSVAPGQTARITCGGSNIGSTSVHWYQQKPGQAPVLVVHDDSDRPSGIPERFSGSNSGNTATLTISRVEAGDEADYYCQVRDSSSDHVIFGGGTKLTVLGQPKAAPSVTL VH: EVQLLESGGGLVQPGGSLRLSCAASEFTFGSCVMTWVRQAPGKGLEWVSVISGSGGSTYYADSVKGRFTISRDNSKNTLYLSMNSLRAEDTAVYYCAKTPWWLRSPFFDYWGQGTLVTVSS	MFI	6240
HL161AN variant No. 12 (LC:N25Q, HC:C32S) (antibody, V domains shown, also called HL161ANQ; #12 (HL161ANQ)) VL: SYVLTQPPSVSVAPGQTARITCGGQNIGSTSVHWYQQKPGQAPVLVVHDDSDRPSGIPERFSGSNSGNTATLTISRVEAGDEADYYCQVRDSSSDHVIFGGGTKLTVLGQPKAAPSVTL VH: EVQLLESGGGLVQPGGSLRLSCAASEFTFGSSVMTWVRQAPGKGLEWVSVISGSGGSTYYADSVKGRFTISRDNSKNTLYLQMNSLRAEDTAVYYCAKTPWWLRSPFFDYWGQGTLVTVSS	MFI	6940
HL161AN variant No. 14 (LC:N25Q, HC:Q82S) (antibody, human IgG1, V domains shown, Variable domains only) VL: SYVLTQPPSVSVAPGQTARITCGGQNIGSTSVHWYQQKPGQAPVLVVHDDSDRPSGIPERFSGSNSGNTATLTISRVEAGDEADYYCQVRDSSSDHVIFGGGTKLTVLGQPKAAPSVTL VH: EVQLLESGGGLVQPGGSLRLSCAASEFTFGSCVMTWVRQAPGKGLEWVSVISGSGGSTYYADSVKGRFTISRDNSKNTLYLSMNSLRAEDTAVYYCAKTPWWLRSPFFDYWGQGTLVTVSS	MFI	6490

Your task in this section: give MFI for each listed record.
1. HL161AN variant No. 5 (LC:N25S, HC:Q82E) (antibody, human IgG1, V domains shown, Variable domains only) VL: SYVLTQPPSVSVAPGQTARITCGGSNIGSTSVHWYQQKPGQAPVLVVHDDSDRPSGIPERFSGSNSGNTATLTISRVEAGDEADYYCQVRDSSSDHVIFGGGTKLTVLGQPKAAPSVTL VH: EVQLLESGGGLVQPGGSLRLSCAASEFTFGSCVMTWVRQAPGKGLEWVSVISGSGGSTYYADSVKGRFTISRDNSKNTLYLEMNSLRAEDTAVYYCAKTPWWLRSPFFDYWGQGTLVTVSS
2. HL161AN variant No. 18 (LC:N25Q, HC:C32S Q82T) (antibody, human IgG1, V domains shown, Variable domains only) VL: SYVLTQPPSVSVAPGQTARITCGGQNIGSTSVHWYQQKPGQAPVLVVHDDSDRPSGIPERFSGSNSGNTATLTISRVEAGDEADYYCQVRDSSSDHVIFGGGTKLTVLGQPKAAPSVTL VH: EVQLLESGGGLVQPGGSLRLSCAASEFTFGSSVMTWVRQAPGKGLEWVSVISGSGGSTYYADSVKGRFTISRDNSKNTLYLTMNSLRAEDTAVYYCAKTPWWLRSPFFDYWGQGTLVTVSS

A:
1: 6350; 2: 6910

Cited source: patent US20230391876A1
